biological target: UniProtKB P35368; test: Radioligand binding, adrenergic α1B (Protocol Group B); parameters: purchased Milipore (Millipore); settings: 0.1 μM compound; Protocol Group B; 0.1 µM
Sequence (P35368 whole entry): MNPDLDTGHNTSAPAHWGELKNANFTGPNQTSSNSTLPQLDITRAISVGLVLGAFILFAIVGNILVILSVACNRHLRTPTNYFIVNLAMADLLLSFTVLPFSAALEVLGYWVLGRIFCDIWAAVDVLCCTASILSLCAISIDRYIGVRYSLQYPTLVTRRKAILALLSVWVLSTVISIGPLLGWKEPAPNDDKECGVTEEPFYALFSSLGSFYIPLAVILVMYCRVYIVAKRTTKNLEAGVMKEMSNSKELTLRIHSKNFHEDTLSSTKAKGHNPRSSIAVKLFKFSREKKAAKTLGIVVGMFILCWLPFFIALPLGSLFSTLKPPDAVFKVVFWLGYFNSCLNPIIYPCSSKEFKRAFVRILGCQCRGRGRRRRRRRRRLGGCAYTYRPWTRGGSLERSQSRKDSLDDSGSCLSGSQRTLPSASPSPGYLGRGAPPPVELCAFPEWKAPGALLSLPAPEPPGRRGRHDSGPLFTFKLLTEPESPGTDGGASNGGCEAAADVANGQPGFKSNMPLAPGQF
measurement.label: Percentage inhibition of ligand binding, Adrenergic α1B (0.1 μM)

{"compound": "Cc1cc(F)cc2c3c(n(CC(C)(O)c4cccnc4)c12)CCN1CCCC31 (single isomer, unassigned) [75d]", "system.under.test": "UniProtKB P35368", "value.observed": "15%"}
{"compound": "CC(O)(Cn1c2c(c3cc(Cl)cc(F)c31)C1CCCN1CC2)c1cccnc1 (single isomer, unassigned) [53b]", "system.under.test": "UniProtKB P35368", "value.observed": "4%"}
{"compound": "Cc1cc(Cl)c2c(c1)c1c(n2CC(C)(O)c2ccncc2)CCN2CCCC12 (single isomer, unassigned) [91c]", "system.under.test": "UniProtKB P35368", "value.observed": "−20%"}
{"compound": "Cc1ccc2c(c1)c1c(n2CC(OCC2CCC2)c2ccncc2)CCN2CCCC12 (single isomer, unassigned) [138a]", "system.under.test": "UniProtKB P35368", "value.observed": "84%"}
{"compound": "Cc1cc(C)c2c(c1)c1c(n2CC(C)(O)c2ccncc2)CCN2CCCC12 (single isomer, unassigned) [19a]", "system.under.test": "UniProtKB P35368", "value.observed": "82%"}
{"compound": "Cc1cc(F)c2c(c1)c1c(n2CC(C)(O)c2cccnc2)CC2CCCN2C1 (single isomer, unassigned) [61a]", "system.under.test": "UniProtKB P35368", "value.observed": "1%"}
{"compound": "CC(O)(Cn1c2c(c3cc(F)ccc31)C1CCCN1CC2)c1ccncc1 (single isomer, unassigned) [31d]", "system.under.test": "UniProtKB P35368", "value.observed": "0%"}
{"compound": "Cc1cc2c3c(n(CC(C)(O)c4ccncc4)c2cc1Cl)CCN1CCCC31 (single isomer, unassigned) [50c]", "system.under.test": "UniProtKB P35368", "value.observed": "19%"}
{"compound": "Cc1ccc2c(c1F)c1c(n2CC(C)(O)c2cccnc2)CCN2CCCC12 (single isomer, unassigned) [87b]", "system.under.test": "UniProtKB P35368", "value.observed": "16%"}
{"compound": "OC(Cn1c2c(c3cc(F)ccc31)C1CCCN1CC2)c1ccncc1 (centres unmarked) [compound 18]", "system.under.test": "UniProtKB P35368", "value.observed": "20%"}
{"compound": "CC(O)(Cn1c2c(c3cc(F)ccc31)C1CCCN1CC2)c1cccnc1 (centres unmarked) [51b]", "system.under.test": "UniProtKB P35368", "value.observed": "−8%"}
{"compound": "CN1CCc2c(c3cc(C(F)(F)F)ccc3n2CC(OC2CCCC2)c2ccncc2)C1 (single isomer, unassigned) [60a]", "system.under.test": "UniProtKB P35368", "value.observed": "12%"}
{"compound": "Cc1cc(F)c2c(c1)c1c(n2CC(C)(O)c2ccncc2)CCN2CCCC12 (single isomer, unassigned) [81d]", "system.under.test": "UniProtKB P35368", "value.observed": "5%"}
{"compound": "Cc1cc(F)cc2c3c(n(CC(C)(O)c4cccnc4)c12)CCN1CCCC31 (single isomer, unassigned) [75a]", "system.under.test": "UniProtKB P35368", "value.observed": "−1%"}
{"compound": "Cc1cc(F)cc2c3c(n(CC(O)c4ccncc4)c12)CCN1CCCC31 (single isomer, unassigned) [136d]", "system.under.test": "UniProtKB P35368", "value.observed": "−2%"}
{"compound": "Cc1cc(Cl)c2c(c1)c1c(n2CC(C)(O)c2ccncc2)CCN2CCCC12 (single isomer, unassigned) [91b]", "system.under.test": "UniProtKB P35368", "value.observed": "43%"}
{"compound": "CC(O)(Cn1c2c(c3cc(F)cc(Cl)c31)C1CCCN1CC2)c1cccnc1 (single isomer, unassigned) [89b]", "system.under.test": "UniProtKB P35368", "value.observed": "3%"}
{"compound": "Cc1cc(F)c2c(c1)c1c(n2CC(C)(O)c2cccnc2)CC2CCCN2C1 (single isomer, unassigned) [61d]", "system.under.test": "UniProtKB P35368", "value.observed": "0%"}
{"compound": "OC(Cn1c2c(c3cc(Cl)cc(F)c31)C1CCCN1CC2)c1ccncc1 (single isomer, unassigned) [135c]", "system.under.test": "UniProtKB P35368", "value.observed": "1%"}
{"compound": "Cc1ccc2c(c1)c1c(n2CC(C)(O)c2ccc(N(C)C)nc2)CCN(C)C1 (single isomer, unassigned) [39a]", "system.under.test": "UniProtKB P35368", "value.observed": "15%"}
{"compound": "Cc1ccc2c(c1)c1c(n2CC(C)(O)c2cccnc2)CCN(C)C1CO (single isomer, unassigned) [16b]", "system.under.test": "UniProtKB P35368", "value.observed": "−3%"}
{"compound": "Cc1cc2c3c(n(CC(C)(O)c4ccncc4)c2cc1Cl)CCN1CCCC31 (single isomer, unassigned) [50b]", "system.under.test": "UniProtKB P35368", "value.observed": "80%"}
{"compound": "OC(Cn1c2c(c3cc(F)ccc31)C1CCCN1CC2)c1ccncc1 (single isomer, unassigned) [18d]", "system.under.test": "UniProtKB P35368", "value.observed": "15%"}
{"compound": "Cc1cc(F)c2c(c1)c1c(n2CC(C)(O)c2ccncc2)CC2CCCN2C1 (single isomer, unassigned) [62d]", "system.under.test": "UniProtKB P35368", "value.observed": "12%"}
{"compound": "CC(O)(Cn1c2c(c3cc(F)ccc31)C1CCCN1CC2)c1ccncc1 (single isomer, unassigned) [31b]", "system.under.test": "UniProtKB P35368", "value.observed": "30%"}
{"compound": "Cc1ccc2c(c1)c1c(n2CC(O)c2cccnc2)CC2CCCN2C1 (single isomer, unassigned) [27a]", "system.under.test": "UniProtKB P35368", "value.observed": "0%"}
{"compound": "CC(O)(Cn1c2c(c3cc(Cl)cc(F)c31)CN1CCCC1C2)c1cccnc1 (single isomer, unassigned) [63a]", "system.under.test": "UniProtKB P35368", "value.observed": "2%"}
{"compound": "Cc1ccc2c(c1)c1c(n2CC(O)c2ccccn2)CC2CCCN2C1 (single isomer, unassigned) [45d]", "system.under.test": "UniProtKB P35368", "value.observed": "4%"}
{"compound": "Cc1ccc2c(c1)c1c(n2CC(C)(O)c2ccnc(F)c2)CCN2CCCC12 (single isomer, unassigned) [48b]", "system.under.test": "UniProtKB P35368", "value.observed": "71%"}

* * *

Biological target: rat adrenergic α1B receptor (Rattus norvegicus, UniProt P15823)
Construct: rat adrenergic α1B receptor obtained from Wistar Rat liver; from tissue; host or cells: Wistar rat liver
Sequence (P15823 1-515): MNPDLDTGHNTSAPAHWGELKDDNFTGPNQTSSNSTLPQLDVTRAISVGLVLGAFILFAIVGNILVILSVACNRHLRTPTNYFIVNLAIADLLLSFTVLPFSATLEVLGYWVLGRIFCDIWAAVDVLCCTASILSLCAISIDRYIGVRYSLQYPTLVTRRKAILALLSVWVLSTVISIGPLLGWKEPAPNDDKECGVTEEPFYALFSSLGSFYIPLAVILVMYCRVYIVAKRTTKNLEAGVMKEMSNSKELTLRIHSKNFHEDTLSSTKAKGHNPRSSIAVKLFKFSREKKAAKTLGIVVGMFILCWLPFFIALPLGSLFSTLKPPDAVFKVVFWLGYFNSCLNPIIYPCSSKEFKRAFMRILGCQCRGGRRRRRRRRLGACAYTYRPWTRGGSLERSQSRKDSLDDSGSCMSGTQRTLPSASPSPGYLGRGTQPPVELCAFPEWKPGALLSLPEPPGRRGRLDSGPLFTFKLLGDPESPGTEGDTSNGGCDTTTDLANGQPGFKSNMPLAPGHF
Assay: Radioligand binding, adrenergic α1B (Protocol Group A)
Settings: 0.1 μM compound, [3H]Prazosin, 0.1 µM
Documented percent inhibition of specific binding, Adrenergic α1B across a set of compounds
measurement.label: percent inhibition of specific binding, Adrenergic α1B (%)

{"compound": "Cc1ccc(C(F)Cn2c3c(c4cccnc42)C2CCCN2CC3)cn1 (single isomer, unassigned) [10b]", "system.under.test": "rat adrenergic α1B receptor (Rattus norvegicus, UniProt P15823)", "value.observed": "−5"}
{"compound": "Cc1ccc(C(F)Cn2c3c(c4cccnc42)C2CCCN2CC3)cn1 (single isomer, unassigned) [10a]", "system.under.test": "rat adrenergic α1B receptor (Rattus norvegicus, UniProt P15823)", "value.observed": "−3"}
{"compound": "Cc1ccc2c(c1)c1c(n2CC(OC(=O)N2CCCC2)c2ccncc2)CCN(C)C1 (stereo not drawn) [compound 4]", "system.under.test": "rat adrenergic α1B receptor (Rattus norvegicus, UniProt P15823)", "value.observed": 27}
{"compound": "c1cncc(CCn2c3c(c4ccccc42)C2CCCN2CC3)c1 (single isomer, unassigned) [2b]", "system.under.test": "rat adrenergic α1B receptor (Rattus norvegicus, UniProt P15823)", "value.observed": 4}
{"compound": "c1cncc(CCn2c3c(c4ccccc42)C2CCCN2CC3)c1 (single isomer, unassigned) [2a]", "system.under.test": "rat adrenergic α1B receptor (Rattus norvegicus, UniProt P15823)", "value.observed": 28}
{"compound": "Cc1ccc2c(c1)c1c(n2CC(OC(=O)N2CCCC2)c2ccncc2)CCN(C)C1 (single isomer, unassigned) [4a]", "system.under.test": "rat adrenergic α1B receptor (Rattus norvegicus, UniProt P15823)", "value.observed": 11}
